assay_text: chemical genetic growth profiling, strain panel (AID 1159580);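 note: tested at 20 µM; growth read once vehicle control cultures reached saturation at 30 °C; lower values mean less growth of the strain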
run_conditions: S. cerevisiae deletion strains, growth OD, locus YFR003C, strain YPI1
The campaign covered roughly 5,500 compounds. About 2,000 (36%) were called active. Roughly 18% stayed inconclusive and do not appear here. Cut-off read from the data, not from the text of the source: active = normalized growth mostly below about 0.91 (no sharp cut-off); inconclusive = no clear call, values can overlap the other calls; inactive = mostly above about 0.92. The list shows a part of the results.
Outcomes: active, inactive

| compound | label_value |
| --- | --- |
| O=C(NNc1c(Cl)cccc1Cl)c1ccc([N+](=O)[O-])o1 | inactive |
| COc1cc(OC)cc(/C(N)=N\O)c1 | inactive |
| O=C(Nc1ccc(OC(F)(F)F)cc1)Nc1cncc(C(F)(F)F)c1 | inactive |
| CCCCc1ccc(N=CNO)c(C)c1 | inactive |
| N#CC(C#N)=NNc1ccc(-n2ccc(C(F)(F)F)n2)cc1 | inactive |
| N#C/C(=N/Nc1ccc(Cl)cc1)C(N)=S | active |
| CCC1(c2ccccc2)OC(c2cc(Cl)cc(Cl)c2O)Nc2ccccc21 (configuration not stated) | inactive |
| CSc1sc(-c2ccn[nH]2)c(-c2ccccc2)c1C#N | inactive |
| CC(Oc1ccc(Cl)cc1Cl)C(=O)NNC(=S)Nc1ccccc1 (configuration not stated) | inactive |
| Cc1c(NCN2C(=O)CCC2=O)cc2c(c1[N+](=O)[O-])C(C)(C)CC2(C)C | inactive |
| N#Cc1c(N)sc2c1CCc1ccccc1-2 | active |
| N/C(=N/OC(=O)c1ccccc1Cl)c1cccc(CS(=O)(=O)c2ccc(Cl)cc2)c1 | inactive |
